Target: T1, human α-CGRP (Homo sapiens, UniProt P06881)
T1 construct: 1-37 (WT); purchased; host or cells: synthetic peptide
T1 sequence (P06881 83-119 limits assumed): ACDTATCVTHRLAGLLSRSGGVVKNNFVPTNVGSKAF
Assay: Biacore affinity of antibody G1 Fab and variants to human α-CGRP
Type: binding
Settings: 37° C., Fab, screening mode unless underlined
measurement-label: α-human koff

| molecule | recorded-value |
| --- | --- |
| M80: G1 variant: L1 R28N,T30S; L2 L56I; H2 E54K,A57N,S58V; HC-FW3 L99T,A100V (antibody, V domains shown) VH: EVQLVESGGGLVQPGGSLRLSCAASGFTFSNYWISWVRQAPGKGLEWVAEIRSKSDNVATHYAEAVKGRFTISRDNAKNSLYLQMNSLRAEDTAVYYCTVYFDYGLAIQNYWGQGTLVTVSS VL: EIVLTQSPATLSLSPGERATLSCKASKNVSTYVSWYQQKPGQAPRLLIYGASNRYIGIPARFSGSGSGTDFTLTISSLEPEDFAVYYCSQSYNYPYTFGQGTKLEIK | 0.00209 s⁻¹ |
| M49: G1 variant: L1 R28N; L2 G50A,L56T; H2 E54K,A57N,S58Y,H61F; HC-FW3 L99T,A100V (antibody, V domains shown) VH: EVQLVESGGGLVQPGGSLRLSCAASGFTFSNYWISWVRQAPGKGLEWVAEIRSKSDNYATFYAEAVKGRFTISRDNAKNSLYLQMNSLRAEDTAVYYCTVYFDYGLAIQNYWGQGTLVTVSS VL: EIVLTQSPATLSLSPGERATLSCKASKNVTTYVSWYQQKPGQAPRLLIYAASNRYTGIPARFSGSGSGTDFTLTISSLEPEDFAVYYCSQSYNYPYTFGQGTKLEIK | 0.000595 s⁻¹ |
| M67: G1 variant: L1 R28N,T30G; L2 L56I; H2 E54K,A57F; HC-FW3 L99T,A100V (antibody, V domains shown) VH: EVQLVESGGGLVQPGGSLRLSCAASGFTFSNYWISWVRQAPGKGLEWVAEIRSKSDFSATHYAEAVKGRFTISRDNAKNSLYLQMNSLRAEDTAVYYCTVYFDYGLAIQNYWGQGTLVTVSS VL: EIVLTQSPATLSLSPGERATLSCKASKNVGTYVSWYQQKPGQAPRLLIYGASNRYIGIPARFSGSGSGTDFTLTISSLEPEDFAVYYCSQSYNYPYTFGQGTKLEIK | 0.00082 s⁻¹ |
| M24: G1 variant: L1 R28L; HC-FW3 L99T,A100V (antibody, V domains shown) VH: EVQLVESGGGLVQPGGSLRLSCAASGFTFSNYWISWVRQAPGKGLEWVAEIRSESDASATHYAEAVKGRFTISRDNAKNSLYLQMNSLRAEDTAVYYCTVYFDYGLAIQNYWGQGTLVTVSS VL: EIVLTQSPATLSLSPGERATLSCKASKLVTTYVSWYQQKPGQAPRLLIYGASNRYLGIPARFSGSGSGTDFTLTISSLEPEDFAVYYCSQSYNYPYTFGQGTKLEIK | 0.000148 s⁻¹ |
| M22: G1 variant: L1 R28W; HC-FW3 L99T (antibody, V domains shown) VH: EVQLVESGGGLVQPGGSLRLSCAASGFTFSNYWISWVRQAPGKGLEWVAEIRSESDASATHYAEAVKGRFTISRDNAKNSLYLQMNSLRAEDTAVYYCTAYFDYGLAIQNYWGQGTLVTVSS VL: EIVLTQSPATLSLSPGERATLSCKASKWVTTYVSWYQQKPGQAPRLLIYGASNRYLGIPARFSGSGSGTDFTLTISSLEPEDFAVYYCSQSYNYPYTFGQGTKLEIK | 0.000116 s⁻¹ |
| M68: G1 variant: L1 R28N,T30G; L2 L56I; H2 E54K,A57N,S58D,E64D; HC-FW3 L99T,A100V (antibody, V domains shown) VH: EVQLVESGGGLVQPGGSLRLSCAASGFTFSNYWISWVRQAPGKGLEWVAEIRSKSDNDATHYADAVKGRFTISRDNAKNSLYLQMNSLRAEDTAVYYCTVYFDYGLAIQNYWGQGTLVTVSS VL: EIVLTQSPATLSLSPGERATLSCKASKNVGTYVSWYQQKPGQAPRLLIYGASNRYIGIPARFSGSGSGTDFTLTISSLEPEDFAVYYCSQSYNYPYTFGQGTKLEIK | 0.000428 s⁻¹ |
| M39: G1 variant: L1 R28N; L2 G50A,L56T; H2 A57N,S58Y; HC-FW3 L99T,A100V (antibody, V domains shown) VH: EVQLVESGGGLVQPGGSLRLSCAASGFTFSNYWISWVRQAPGKGLEWVAEIRSESDNYATHYAEAVKGRFTISRDNAKNSLYLQMNSLRAEDTAVYYCTVYFDYGLAIQNYWGQGTLVTVSS VL: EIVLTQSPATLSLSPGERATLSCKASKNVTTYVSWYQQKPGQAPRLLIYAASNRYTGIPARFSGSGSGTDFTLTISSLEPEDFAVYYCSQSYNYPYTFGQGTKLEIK | 0.000425 s⁻¹ |
| M56: G1 variant: L1 R28N,T30D; L2 L56S; H2 E54K,A57N,H61F; HC-FW3 L99T,A100V (antibody, V domains shown) VH: EVQLVESGGGLVQPGGSLRLSCAASGFTFSNYWISWVRQAPGKGLEWVAEIRSKSDNSATFYAEAVKGRFTISRDNAKNSLYLQMNSLRAEDTAVYYCTVYFDYGLAIQNYWGQGTLVTVSS VL: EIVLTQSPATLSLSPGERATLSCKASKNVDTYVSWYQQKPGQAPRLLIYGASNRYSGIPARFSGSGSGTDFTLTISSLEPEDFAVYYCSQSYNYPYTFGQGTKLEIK | 0.000479 s⁻¹ |
